- measurement-description: inhibitors of mutant huntingtin aggregation, primary screen, imaging, exon1htt(103Q)mCFP cells, high-content imaging (AID 483);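 note: compound exposure lasted 3 days before fixation; percent of the per-plate median nuclei count of sample wells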
- test-conditions: exon1htt(103Q)mCFP cell line, aggregate imaging, at 2 µM; measured here: cell count, toxicity
property: nuclei count

Lookup: Request the reported nuclei count associated with CCOC(=O)C(C)n1cnc2c(nnn2Cc2ccc(C)cc2)c1=O (configuration not stated)
Found: 91.7%

* * *

Measured NADPH fluorescence slope, listed per entry for reference.
- assay-system: Voltage-gated potassium channel subunit beta-2 (Rattus norvegicus) (UniProt P62483)
- Sequence (P62483 whole entry, looked up): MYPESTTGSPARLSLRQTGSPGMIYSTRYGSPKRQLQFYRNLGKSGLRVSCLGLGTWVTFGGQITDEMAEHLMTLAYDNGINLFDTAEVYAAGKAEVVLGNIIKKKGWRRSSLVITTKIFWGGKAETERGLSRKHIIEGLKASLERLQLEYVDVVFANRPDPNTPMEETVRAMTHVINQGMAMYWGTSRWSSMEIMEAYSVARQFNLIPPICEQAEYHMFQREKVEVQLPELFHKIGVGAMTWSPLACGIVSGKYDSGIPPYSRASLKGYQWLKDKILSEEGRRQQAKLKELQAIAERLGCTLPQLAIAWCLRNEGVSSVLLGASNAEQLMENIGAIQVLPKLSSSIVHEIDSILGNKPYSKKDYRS
- measurement-description: KvBeta positive modulators, primary screen, biochemical, NADPH fluorescence (AID 623);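 note: fluorescence intensity change per second fitted from 20 to 320 s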
- test-conditions: Recombinant KvBeta, NADPH fluorescence decrease slope, 10 min; at 10 µM; stronger effect = lower value
The reply should be a number, written without any unit.

// known answers, use as guide
compound	NADPH fluorescence slope
Cc1ccc(C)c2[nH]c(=O)c(CN(CCN3CCCC3)C(=O)Nc3cccc(Cl)c3)cc12	-6.8e-05
Cc1cc(Nc2ccc3ccccc3c2)n2ncnc2n1	-4.4e-05
CC(C)(C)OC(=O)N1CCCC1C(=O)N1CCc2ccccc21 (stereo unspecified)	-1.2e-06
CCS(=O)(=O)N1CCCC(C(=O)NCc2cccc(OC)c2)C1 (stereo unspecified)	-1.9e-05
COc1ccc(C2=CC(c3ccc(C)cc3)n3nnnc3N2)cc1 (stereo unspecified)	-4.1e-05

Lookup: Give its NADPH fluorescence slope value. Item: `CCCC(=O)Nc1nn(CCC)c2nc3ccccc3cc12`
Found: -6.7e-05

Lookup: Quick one: `COc1ccc(-c2nnn(CC(=O)c3ccc4c(c3)OCCO4)n2)cc1OC`
Found: -4.4e-05

Lookup: Now try O=C(NCC1CCCO1)c1ccc(C(=O)NCC2CCCO2)cc1 (stereo unspecified) .
Found: -3.2e-05

Lookup: Moving on to the next compound: `CCOC(=O)c1ccc(NC(=O)COc2ccccc2OC)cc1`
Found: -0.000105

Lookup: Check `COc1ccc(N2CCN(c3oc(COc4ccc(Cl)cc4)nc3C#N)CC2)cc1` too.
Found: -7e-05
